Entries annotated with measured Emax
Molecular target: HA-mouse µOR (Mus musculus, UniProt P42866)
Construct: expressed in transfected cells; host or cells: HEK cells (HEK-293), transient, co-transfected with pGloSensor22F
Sequence (P42866 whole entry): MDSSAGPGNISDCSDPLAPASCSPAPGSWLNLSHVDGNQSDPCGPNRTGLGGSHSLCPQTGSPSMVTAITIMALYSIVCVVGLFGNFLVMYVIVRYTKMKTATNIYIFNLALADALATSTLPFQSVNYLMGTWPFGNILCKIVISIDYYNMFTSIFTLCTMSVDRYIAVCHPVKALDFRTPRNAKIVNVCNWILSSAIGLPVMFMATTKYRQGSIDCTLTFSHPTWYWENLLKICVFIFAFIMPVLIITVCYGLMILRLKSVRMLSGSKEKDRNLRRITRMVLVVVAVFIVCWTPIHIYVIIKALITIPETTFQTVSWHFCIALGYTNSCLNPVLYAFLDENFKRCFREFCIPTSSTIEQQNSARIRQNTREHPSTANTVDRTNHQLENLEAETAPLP
Test: cell-based
Details: HEK293, read-out: cAMP α (% inhibition at maximal efficacy)
Supply the numeric figure in %, leaving out any unit text.

Worked examples follow.
MOLECULE: CC[C@H]1CN2CC[C@]3(Nc4cccc(OC)c4C3=O)[C@@H]2C[C@@H]1/C(=C\OC)C(=O)OC
TESTED SYSTEM: HA-mouse µOR (Mus musculus, UniProt P42866)
Emax / %: 58
--
MOLECULE: C=C[C@H]1CN2CC[C@@]3(O)C(=Nc4cccc(OC)c43)[C@@H]2C[C@@H]1/C(=C\OC)C(=O)OC [7OH PAYN, 7-Hydroxypaynantheine]
TESTED SYSTEM: HA-mouse µOR (Mus musculus, UniProt P42866)
Emax / %: 80
--
MOLECULE: C=CC1CN2CCC3(Nc4cccc(OC)c4C3=O)C2CC1C(=COC)C(=O)OC (stereo not shown)
TESTED SYSTEM: HA-mouse µOR (Mus musculus, UniProt P42866)
Emax / %: 60

Pending molecule:
Request: Please report the recorded Emax for CC[C@H]1CN2CC[C@@]3(O)C(=Nc4cccc(OC)c43)[C@@H]2C[C@@H]1/C(=C\OC)C(=O)OC [7OH SPG, 7-Hydroxyspeciogynine] .
Response: 66

----------
Biological target: μOR (Homo sapiens)
Sequence (P35372 whole entry): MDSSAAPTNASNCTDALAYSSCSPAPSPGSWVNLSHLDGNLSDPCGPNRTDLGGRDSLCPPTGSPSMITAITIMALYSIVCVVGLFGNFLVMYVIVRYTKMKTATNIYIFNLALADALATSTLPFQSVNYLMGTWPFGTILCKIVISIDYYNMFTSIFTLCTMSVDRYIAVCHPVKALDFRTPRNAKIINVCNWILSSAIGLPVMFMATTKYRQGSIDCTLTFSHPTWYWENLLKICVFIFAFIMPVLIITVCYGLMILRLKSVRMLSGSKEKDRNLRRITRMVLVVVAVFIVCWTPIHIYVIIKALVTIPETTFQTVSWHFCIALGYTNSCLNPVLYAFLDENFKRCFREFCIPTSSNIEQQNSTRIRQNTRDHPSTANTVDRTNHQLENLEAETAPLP
Entries annotated with measured pKi
pKi (log units): -log10 of the concentration in mol/L.

Worked examples follow.
COMPOUND: C=C[C@H]1CN2CC[C@@]3(O)C(=Nc4cccc(OC)c43)[C@@H]2C[C@@H]1/C(=C\OC)C(=O)OC [7OH PAYN, 7-Hydroxypaynantheine]
pKi: 5.21
//
COMPOUND: C=CC1CN2CCC3(Nc4cccc(OC)c4C3=O)C2CC1C(=COC)C(=O)OC (stereo not shown)
pKi: 6.17
//
COMPOUND: C=C[C@H]1CN2CCc3c([nH]c4cccc(OC)c34)[C@@H]2C[C@@H]1/C(=C\OC)C(=O)OC
pKi: 6.28

Pending compound:
Request: Please report the recorded pKi for "CC[C@H]1CN2CC[C@]3(Nc4cccc(OC)c4C3=O)[C@@H]2C[C@@H]1/C(=C\OC)C(=O)OC" .
Response: 7.11

----------
Target: FLAG-mouse κOR (Mus musculus, UniProt P33534)
Construct: expressed in transfected cells; host or cells: HEK cells (HEK-293), transient, co-transfected with pGloSensor22F
Sequence (P33534 whole entry): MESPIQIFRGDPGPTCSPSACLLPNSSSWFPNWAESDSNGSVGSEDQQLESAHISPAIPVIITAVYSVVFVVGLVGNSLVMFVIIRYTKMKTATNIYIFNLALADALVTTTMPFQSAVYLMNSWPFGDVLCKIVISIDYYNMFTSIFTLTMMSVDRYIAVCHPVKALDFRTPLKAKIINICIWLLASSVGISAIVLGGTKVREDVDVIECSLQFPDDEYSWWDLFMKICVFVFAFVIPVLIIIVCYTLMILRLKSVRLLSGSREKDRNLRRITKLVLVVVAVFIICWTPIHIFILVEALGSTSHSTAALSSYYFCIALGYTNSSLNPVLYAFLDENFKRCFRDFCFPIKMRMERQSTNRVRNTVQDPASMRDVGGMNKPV
Assay: cell-based
VALUE KIND: IC50 (µM)
Supply the numeric figure in µM, leaving out any unit text.

COMPOUND: CC[C@H]1CN2CC[C@]3(Nc4cccc(OC)c4C3=O)[C@@H]2C[C@@H]1/C(=C\OC)C(=O)OC [SPG PI, Speciogynine Pseudoindoxyl]
VALUE KIND: IC50
UNITS TEXT: µM
NUMBER: 20.6

Pending compound:
Request: Please report the recorded IC50 for CC[C@H]1CN2CC[C@@]3(O)C(=Nc4cccc(OC)c43)[C@@H]2C[C@@H]1/C(=C\OC)C(=O)OC [7OH SPG, 7-Hydroxyspeciogynine] .
Response: 7.71

----------
Target: κOR (Homo sapiens, UniProt P41145)
Sequence (P41145 whole entry): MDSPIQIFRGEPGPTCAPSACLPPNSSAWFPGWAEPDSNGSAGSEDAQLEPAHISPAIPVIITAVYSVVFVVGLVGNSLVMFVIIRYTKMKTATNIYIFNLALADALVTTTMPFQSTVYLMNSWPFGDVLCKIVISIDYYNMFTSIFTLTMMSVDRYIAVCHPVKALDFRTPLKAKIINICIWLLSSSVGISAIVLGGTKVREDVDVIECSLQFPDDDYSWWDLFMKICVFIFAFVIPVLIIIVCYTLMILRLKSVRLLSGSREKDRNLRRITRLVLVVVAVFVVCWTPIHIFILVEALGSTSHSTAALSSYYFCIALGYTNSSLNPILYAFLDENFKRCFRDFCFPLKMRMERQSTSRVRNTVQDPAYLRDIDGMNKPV
Test: biochemical
Type: binding
VALUE KIND: Ki
State the result as a value with its unit after it.

Request: Please report the recorded Ki for "CC[C@H]1CN2CC[C@]3(Nc4cccc(OC)c4C3=O)[C@@H]2C[C@@H]1/C(=C\OC)C(=O)OC" .
Response: 750 nM

----------
Entries annotated with measured Ki
Molecular target: κOR (Homo sapiens)
Assay: biochemical
Assay type: binding
Conditions: Binding Ki (µM)
Supply the numeric figure in µM, leaving out any unit text.

Worked examples follow.
MOLECULE: C=C[C@H]1CN2CC[C@@]3(O)C(=Nc4cccc(OC)c43)[C@@H]2C[C@@H]1/C(=C\OC)C(=O)OC [7OH PAYN, 7-Hydroxypaynantheine]
Ki [µM]: 7.46
//
MOLECULE: C=CC1CN2CCC3(Nc4cccc(OC)c4C3=O)C2CC1C(=COC)C(=O)OC (stereo not shown) [PAYN PI, Paynantheine Pseudoindoxyl]
Ki [µM]: 1.31

Pending molecule:
Request: Give recorded Ki with κOR (Homo sapiens) for the following molecule: CC[C@H]1CN2CC[C@@]3(O)C(=Nc4cccc(OC)c43)[C@@H]2C[C@@H]1/C(=C\OC)C(=O)OC [7OH SPG, 7-Hydroxyspeciogynine]
Response: 1.63

----------
Molecular target: δOR (Homo sapiens)
Sequence (P41143 whole entry): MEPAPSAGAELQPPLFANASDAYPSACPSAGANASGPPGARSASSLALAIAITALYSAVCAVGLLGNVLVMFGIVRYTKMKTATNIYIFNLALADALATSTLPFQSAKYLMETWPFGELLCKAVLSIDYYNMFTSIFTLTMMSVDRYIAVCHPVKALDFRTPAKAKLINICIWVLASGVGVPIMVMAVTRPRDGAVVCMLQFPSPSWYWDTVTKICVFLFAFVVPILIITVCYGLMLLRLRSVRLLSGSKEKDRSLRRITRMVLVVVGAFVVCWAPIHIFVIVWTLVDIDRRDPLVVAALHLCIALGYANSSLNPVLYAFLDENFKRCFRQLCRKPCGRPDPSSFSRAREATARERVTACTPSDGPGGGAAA
pKi: −log10 of the molar value.
# pKi >= 6 gives 1.0, anything below gives 0.0

COMPOUND: CC[C@@H]1CN2CCc3c([nH]c4cccc(OC)c34)[C@H]2C[C@@H]1/C(=C\OC)C(=O)OC
CATEGORY LABEL: 0.0
--
COMPOUND: C=C[C@H]1CN2CC[C@@]3(O)C(=Nc4cccc(OC)c43)[C@@H]2C[C@@H]1/C(=C\OC)C(=O)OC [7OH PAYN, 7-Hydroxypaynantheine]
CATEGORY LABEL: 0.0
--
COMPOUND: CC[C@H]1CN2CC[C@@]3(O)C(=Nc4cccc(OC)c43)[C@@H]2C[C@@H]1/C(=C\OC)C(=O)OC [7OH SPG, 7-Hydroxyspeciogynine]
CATEGORY LABEL: 1.0

Kindly review the next compound as well.
Request: pKi >= 6 for CC[C@@H]1CN2CC[C@@]3(O)C(=Nc4cccc(OC)c43)[C@@H]2C[C@@H]1/C(=C\OC)C(=O)OC [7-OH MITRA, 7-hydroxymitragynine, reference compound] ?
Response: 1.0

----------
Entries annotated with measured IC50
Target: FLAG-mouse δOR (Mus musculus, UniProt P32300)
Construct: expressed in transfected cells; host or cells: HEK cells (HEK-293), transient, co-transfected with pGloSensor22F
Sequence (P32300 whole entry): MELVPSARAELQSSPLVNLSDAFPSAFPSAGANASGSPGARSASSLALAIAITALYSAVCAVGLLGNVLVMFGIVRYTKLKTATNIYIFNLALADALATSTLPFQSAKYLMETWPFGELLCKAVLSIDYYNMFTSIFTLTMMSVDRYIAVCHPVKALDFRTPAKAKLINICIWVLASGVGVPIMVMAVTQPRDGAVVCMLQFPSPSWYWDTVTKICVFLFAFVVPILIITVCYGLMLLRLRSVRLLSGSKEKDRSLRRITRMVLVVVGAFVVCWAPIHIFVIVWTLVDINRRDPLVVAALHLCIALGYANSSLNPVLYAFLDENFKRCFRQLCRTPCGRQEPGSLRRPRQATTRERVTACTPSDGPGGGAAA
Assay: cell-based
Supply the numeric figure in µM, leaving out any unit text.

MOLECULE: CC[C@H]1CN2CC[C@@]3(O)C(=Nc4cccc(OC)c43)[C@@H]2C[C@@H]1/C(=C\OC)C(=O)OC [7OH SPG, 7-Hydroxyspeciogynine]
NUMBER: 2.27

Request: Please report the recorded IC50 for C=C[C@H]1CN2CC[C@@]3(O)C(=Nc4cccc(OC)c43)[C@@H]2C[C@@H]1/C(=C\OC)C(=O)OC [7OH PAYN, 7-Hydroxypaynantheine] .
Response: 5.74

Request: Another: "CC[C@H]1CN2CC[C@]3(Nc4cccc(OC)c4C3=O)[C@@H]2C[C@@H]1/C(=C\OC)C(=O)OC"
Response: 8.53

----------
Molecular target: HA-mouse µOR (Mus musculus)
Construct: expressed in transfected cells; host or cells: HEK cells (HEK-293), transient, co-transfected with pGloSensor22F
Assay: cell-based
Entries annotated with measured IC50
State the result as a value with its unit after it.

COMPOUND: CC[C@H]1CN2CC[C@]3(Nc4cccc(OC)c4C3=O)[C@@H]2C[C@@H]1/C(=C\OC)C(=O)OC
IC50: 230 nM

Request: Give recorded IC50 with HA-mouse µOR (Mus musculus) for the following compound: CC[C@H]1CN2CC[C@@]3(O)C(=Nc4cccc(OC)c43)[C@@H]2C[C@@H]1/C(=C\OC)C(=O)OC [7OH SPG, 7-Hydroxyspeciogynine]
Response: 610 nM

Request: Another: C=CC1CN2CCC3(Nc4cccc(OC)c4C3=O)C2CC1C(=COC)C(=O)OC (stereo not shown)
Response: 4820 nM

Request: Another: C=C[C@H]1CN2CC[C@@]3(O)C(=Nc4cccc(OC)c43)[C@@H]2C[C@@H]1/C(=C\OC)C(=O)OC [7OH PAYN, 7-Hydroxypaynantheine]
Response: 21800 nM

----------
Target: κOR (Homo sapiens)
Assay: biochemical
Format: binding
Details: Binding Ki (µM)
VALUE KIND: Ki (µM)
Supply the numeric figure in µM, leaving out any unit text.

MOLECULE: CC[C@H]1CN2CCc3c([nH]c4cccc(OC)c34)[C@@H]2C[C@@H]1/C(=C\OC)C(=O)OC
UNITS TEXT: µM
Ki: 3

MOLECULE: CC[C@@H]1CN2CCc3c([nH]c4cccc(OC)c34)[C@H]2C[C@@H]1/C(=C\OC)C(=O)OC
UNITS TEXT: µM
Ki: 0.59

MOLECULE: CC[C@@H]1CN2CC[C@@]3(O)C(=Nc4cccc(OC)c43)[C@@H]2C[C@@H]1/C(=C\OC)C(=O)OC [7-OH MITRA, 7-hydroxymitragynine, reference compound]
UNITS TEXT: µM
Ki: 0.14

Pending molecule:
Request: Please report the recorded Ki for "C=C[C@H]1CN2CCc3c([nH]c4cccc(OC)c34)[C@@H]2C[C@@H]1/C(=C\OC)C(=O)OC" .
Response: 4
